# targetDesc: Carnitine O-palmitoyltransferase 1, muscle isoform (Rattus norvegicus, UniProt Q63704)
# Sequence (Q63704 whole entry, canonical isoform): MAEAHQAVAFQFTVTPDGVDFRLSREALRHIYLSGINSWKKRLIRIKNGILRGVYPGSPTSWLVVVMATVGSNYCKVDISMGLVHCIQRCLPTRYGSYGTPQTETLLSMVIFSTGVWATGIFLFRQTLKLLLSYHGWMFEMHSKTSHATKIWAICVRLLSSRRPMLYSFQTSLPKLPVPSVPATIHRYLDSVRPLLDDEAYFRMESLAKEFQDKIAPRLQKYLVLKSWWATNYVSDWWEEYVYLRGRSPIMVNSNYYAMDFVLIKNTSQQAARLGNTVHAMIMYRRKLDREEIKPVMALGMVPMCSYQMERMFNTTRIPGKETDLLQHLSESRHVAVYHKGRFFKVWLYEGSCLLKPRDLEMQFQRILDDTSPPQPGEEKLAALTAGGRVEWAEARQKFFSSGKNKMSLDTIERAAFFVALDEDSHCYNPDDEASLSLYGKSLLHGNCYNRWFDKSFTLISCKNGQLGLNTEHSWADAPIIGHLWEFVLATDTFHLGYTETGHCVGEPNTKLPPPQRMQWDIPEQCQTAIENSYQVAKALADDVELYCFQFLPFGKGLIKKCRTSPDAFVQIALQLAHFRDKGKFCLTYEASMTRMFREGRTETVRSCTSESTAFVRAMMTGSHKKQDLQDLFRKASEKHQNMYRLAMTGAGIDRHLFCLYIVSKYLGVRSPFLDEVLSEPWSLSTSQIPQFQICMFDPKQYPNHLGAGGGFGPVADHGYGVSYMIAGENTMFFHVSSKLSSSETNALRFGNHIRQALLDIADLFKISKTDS
# method: Inhibitory activity against rat heart mitochondrial carnitine palmitoyltransferase 1b using [14C]palmitoyl-CoA as radioligand
Can you tell me pIC50 for the items I'm about to list?
Lab note: report pIC50 as minus log10 of the concentration in molar units, number only.

Result for CCCCCCCCCNS(=O)(=O)NC(CC(=O)[O-])C[N+](C)(C)C (stereo not drawn) , tested on Carnitine O-palmitoyltransferase 1, muscle isoform (Rattus norvegicus, UniProt Q63704), pIC50: 5.42

Result for CCCCCCCCCNC(=O)NC(CC(=O)[O-])C[N+](C)(C)C (stereo not drawn) , tested on Carnitine O-palmitoyltransferase 1, muscle isoform (Rattus norvegicus, UniProt Q63704), pIC50: 4.08

Result for CCCCCCCCCCCNS(=O)(=O)N[C@H](CC(=O)[O-])C[N+](C)(C)C , tested on Carnitine O-palmitoyltransferase 1, muscle isoform (Rattus norvegicus, UniProt Q63704), pIC50: 5.24
